tested on: THRa:RXRa (NR concentration 90 nM, RXRa partner concentration 90 nM); test: PBM binding z-score (relative to random genomic background probes); higher = stronger binding; sequences stand for … in GC…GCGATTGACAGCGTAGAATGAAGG

{"columns": ["PRIMARY_SEQUENCE", "PBM binding z-score"],
 "data": [
  ["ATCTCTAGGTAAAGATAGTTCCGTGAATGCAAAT", 0.316],
  ["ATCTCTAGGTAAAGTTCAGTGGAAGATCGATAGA", 1.3],
  ["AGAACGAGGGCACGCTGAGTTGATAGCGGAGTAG", 1.86],
  ["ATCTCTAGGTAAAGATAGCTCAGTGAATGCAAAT", -0.00233],
  ["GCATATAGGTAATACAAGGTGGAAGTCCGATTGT", 2.03],
  ["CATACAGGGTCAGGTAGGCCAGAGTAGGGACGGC", 2.93]
]}

----------
tested on: PPARg DBDmut IVT, anti-PPARg (DBD mutation: PPARg1 K132A/R137A, NR concentration 270 nM); experiment: PBM binding z-score (relative to random genomic background probes); higher = stronger binding; sequences stand for … in GC…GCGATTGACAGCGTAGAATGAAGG

{"columns": ["PRIMARY_SEQUENCE", "PBM binding z-score"],
 "data": [
  ["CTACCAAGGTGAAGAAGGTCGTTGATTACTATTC", -0.276],
  ["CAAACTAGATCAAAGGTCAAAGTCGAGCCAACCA", 1.55],
  ["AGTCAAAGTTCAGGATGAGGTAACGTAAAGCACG", 0.721],
  ["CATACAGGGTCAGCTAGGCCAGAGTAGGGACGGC", 1.03],
  ["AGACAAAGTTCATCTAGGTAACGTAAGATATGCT", 1.93],
  ["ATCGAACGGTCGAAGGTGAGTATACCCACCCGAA", -0.543],
  ["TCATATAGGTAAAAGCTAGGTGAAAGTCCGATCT", 1.08],
  ["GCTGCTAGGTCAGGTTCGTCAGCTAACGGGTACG", -0.897],
  ["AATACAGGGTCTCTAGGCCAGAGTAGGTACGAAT", -0.134],
  ["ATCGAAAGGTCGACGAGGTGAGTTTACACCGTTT", 0.288],
  ["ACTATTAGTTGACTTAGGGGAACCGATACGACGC", 1.41],
  ["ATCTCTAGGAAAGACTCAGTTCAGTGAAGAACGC", 0.852]
]}

----------
test system: RXRa homodimer (NR concentration 180 nM); assay: PBM binding z-score (relative to random genomic background probes); higher = stronger binding; sequences stand for … in GC…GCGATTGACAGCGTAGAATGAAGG
MEASURED_PARAMETER: PBM binding z-score

{"columns": ["PRIMARY_SEQUENCE", "READOUT_VALUE"],
 "data": [
  ["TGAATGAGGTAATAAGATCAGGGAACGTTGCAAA", 0.365],
  ["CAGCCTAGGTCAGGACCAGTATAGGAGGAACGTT", 1.7],
  ["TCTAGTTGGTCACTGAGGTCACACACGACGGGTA", 5.14],
  ["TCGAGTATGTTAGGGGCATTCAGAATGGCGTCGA", 0.27],
  ["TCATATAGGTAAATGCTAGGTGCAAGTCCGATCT", 0.838],
  ["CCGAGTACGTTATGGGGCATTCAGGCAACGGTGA", -0.121],
  ["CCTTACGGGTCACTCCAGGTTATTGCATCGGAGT", 3.97],
  ["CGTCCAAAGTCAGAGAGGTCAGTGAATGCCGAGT", 2.65],
  ["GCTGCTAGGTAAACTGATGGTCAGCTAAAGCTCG", -0.342],
  ["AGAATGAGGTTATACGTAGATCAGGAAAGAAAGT", 2.25],
  ["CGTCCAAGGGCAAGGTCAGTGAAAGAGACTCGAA", 2.23],
  ["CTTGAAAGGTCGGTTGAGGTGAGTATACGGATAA", 2.5],
  ["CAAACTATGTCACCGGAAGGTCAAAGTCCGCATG", 4.15],
  ["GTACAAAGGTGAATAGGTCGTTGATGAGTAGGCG", 3.43],
  ["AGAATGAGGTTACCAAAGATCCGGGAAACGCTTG", 2.5],
  ["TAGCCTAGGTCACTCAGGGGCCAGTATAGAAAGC", 2.94],
  ["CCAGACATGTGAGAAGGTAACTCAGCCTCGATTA", 0.09],
  ["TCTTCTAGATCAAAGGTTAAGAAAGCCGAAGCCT", 2.95],
  ["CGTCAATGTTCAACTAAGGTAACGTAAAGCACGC", 0.456],
  ["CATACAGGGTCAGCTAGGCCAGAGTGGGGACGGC", 4.23],
  ["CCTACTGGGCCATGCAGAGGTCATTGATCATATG", 3.81],
  ["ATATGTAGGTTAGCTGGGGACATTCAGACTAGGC", 0.737],
  ["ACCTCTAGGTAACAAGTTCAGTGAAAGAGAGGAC", 0.678],
  ["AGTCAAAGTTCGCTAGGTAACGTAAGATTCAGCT", 0.868],
  ["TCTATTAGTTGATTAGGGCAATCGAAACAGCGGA", 0.804],
  ["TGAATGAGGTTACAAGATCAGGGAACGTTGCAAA", 2.26],
  ["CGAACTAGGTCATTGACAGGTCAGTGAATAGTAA", 4.6],
  ["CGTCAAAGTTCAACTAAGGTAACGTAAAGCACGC", 5.28],
  ["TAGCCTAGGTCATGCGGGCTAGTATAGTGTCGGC", 2.92],
  ["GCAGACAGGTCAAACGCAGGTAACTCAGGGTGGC", 4.65],
  ["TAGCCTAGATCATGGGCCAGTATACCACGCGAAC", -0.39],
  ["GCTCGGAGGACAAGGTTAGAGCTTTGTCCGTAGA", 0.102],
  ["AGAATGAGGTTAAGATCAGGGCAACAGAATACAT", 2.78],
  ["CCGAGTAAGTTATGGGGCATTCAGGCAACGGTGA", -0.299],
  ["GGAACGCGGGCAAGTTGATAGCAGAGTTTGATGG", -0.242],
  ["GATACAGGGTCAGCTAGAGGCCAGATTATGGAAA", 4.05],
  ["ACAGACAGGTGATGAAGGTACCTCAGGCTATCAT", 0.4],
  ["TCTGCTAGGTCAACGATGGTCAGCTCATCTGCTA", 2.41],
  ["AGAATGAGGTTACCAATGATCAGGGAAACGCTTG", 2.62],
  ["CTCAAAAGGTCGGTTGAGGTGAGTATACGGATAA", 2.66],
  ["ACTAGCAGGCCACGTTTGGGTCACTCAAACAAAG", 0.813],
  ["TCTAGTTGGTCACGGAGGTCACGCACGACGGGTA", 6.17],
  ["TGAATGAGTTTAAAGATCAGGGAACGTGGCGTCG", 0.84],
  ["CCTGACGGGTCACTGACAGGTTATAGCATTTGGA", 4.25],
  ["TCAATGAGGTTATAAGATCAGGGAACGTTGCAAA", 2.19],
  ["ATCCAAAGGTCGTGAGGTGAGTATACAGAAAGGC", 5.91],
  ["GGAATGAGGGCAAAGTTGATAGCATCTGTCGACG", 2.31],
  ["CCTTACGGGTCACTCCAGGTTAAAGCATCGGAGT", 4.65],
  ["CCGGCTGGGGCAGAAAGGTTACCATACCATCCGG", 1.74],
  ["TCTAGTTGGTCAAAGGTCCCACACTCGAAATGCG", 1.75],
  ["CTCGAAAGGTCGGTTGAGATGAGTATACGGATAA", 2.01]
]}

The values you see were collected from the supplement of paper PMC6555819.
